# tested-target: Chromo domain-containing protein 1 (Saccharomyces cerevisiae (strain ATCC 204508 / S288c) (Baker's yeast))
# assay-remarks: ScCHD-1 Enzyme Inhibition Assay
# Assay type: functional
# Design: scale not given: in the data most compounds retested in dose-response had high values
# experimental-context: 30 µM
property-measured: Percent Effect (%)
Note: unit % is implicit; provide only the numeric part.

What measured Percent Effect goes with Cc1nc(CN2C(=O)CCC23CCN(c2ncccn2)CC3)cs1 ? -8.28

And c1ccc2cc(OCCN3CCOC(Cn4cncn4)C3)ccc2c1 (centres undefined) ? -6.36

And CC(C)C(=O)NC1CCN(Cc2cccc3c2OCCO3)CC1 ? -21.1

And Cc1csc(CNC(=O)NCCc2ccc3c(c2)OCCO3)n1 ? -17.6

And COCc1noc(-c2ccc(N(C)Cc3cc(C)no3)nc2)n1 ? -6.04

And Cn1ccnc1CN1CCN(CC(O)c2ccc(F)c(F)c2)CC1 (centres undefined) ? -2.48

And COC(=O)c1ccc(N2CCN(C(=O)c3cc(C)on3)C(C)C2)cc1 (centres undefined) ? -6.13

And COCC1CCN(C(=O)c2cccc(S(=O)(=O)NCC3(C)COC3)c2)C1 (centres undefined) ? -4.61

And CCS(=O)(=O)c1ccccc1C(=O)NCc1ccnc(N(C)C)c1 ? -10.5

And COc1ccc(C(=O)N(C)Cc2cccc(C#N)c2)c(OC)c1OC ? -2.24

And Cc1cc(CNC(=O)NC(C)c2ccc(N3CCOCC3)cc2)no1 (centres undefined) ? -6.04

And CCN1CCN(c2nc(C(C)C)nc3c(C)nn(CC)c23)CC1 ? -0.207

And CC(C)OCC(=O)N1CCCN(Cc2ccc(C#N)cc2)CC1 ? -8.3

And CN(Cc1ccco1)Cc1ccccc1CNC(=O)c1cc[nH]n1 ? -4.37

And CN(C(=O)c1cccc(C(=O)NCC(F)(F)F)c1)c1ccccc1 ? 0.0055

And O=C(NS(=O)(=O)c1cc(Cl)sc1Cl)c1cccc2c1OCCO2 ? -4.53

And CC(C)c1noc(C(C)N2CCN(Cc3ccsc3)CC2)n1 (centres undefined) ? 4.12

And COc1ccccc1OCC(=O)NCC(O)(c1ccccc1)C1CC1 (centres undefined) ? -5.98

And O=C(NCCCn1cncn1)NCC(c1ccccc1)N1CCCC1 (centres undefined) ? -23.6

And CS(=O)(=O)N[C@@H]1CN(C(=O)c2ccccn2)[C@@H]2CCCO[C@@H]21 ? -0.379

And COc1ccccc1CN(C)c1nccc(-c2cn(C)nc2C)n1 ? -5.41

And COc1c(CNCC(O)c2cccc(F)c2)c(C(C)C)nn1C (centres undefined) ? -15.9

And CCCNC(=O)CN1CCC(C(=O)Nc2cnn(CC)c2)CC1 ? -3.68

And c1cnc(N2CCC3(CCN(Cc4ccncc4)CC3)CC2)nc1 ? 13

Measured values drawn from ChEMBL document CHEMBL3988442 for this set.
